Experiment: Circular dichroism helicity determination
Format: physicochemical
Conditions: percent helicity; peptide-SUV complexes (20:1 EPC:Chol., Ri=30 and Ri=50), 37° C.
No end group written: not given here.
measuredAttribute: He (%) SUVs
Form entry: value (%) — number only.

The following substances have reported results that may help.
[
  {
    "substance": "Ac-PVLDEFREKLNEELEALKQKLK-NH2 [peptide 75, reference compound]",
    "valueUnits": "%",
    "He (%) SUVs": 23
  },
  {
    "substance": "LDDLLQKWAEAFNQLLKK [peptide 237, reference compound]",
    "valueUnits": "%",
    "He (%) SUVs": 45
  },
  {
    "substance": "EWLKAFYEKVLEKLKELF [peptide 248, reference compound]",
    "valueUnits": "%",
    "He (%) SUVs": 13
  },
  {
    "substance": "Ac-PVLDLFRELLEEWKQKLK-NH2 [compound 215]",
    "valueUnits": "%",
    "He (%) SUVs": 53
  },
  {
    "substance": "PVLDAFRELLEALAQLKK [compound 223]",
    "valueUnits": "%",
    "He (%) SUVs": 23
  }
]

Exercise: Tell me measured He (%) SUVs for PLLNELLEALKQKLK [compound 104] please.
Solution: 29

Exercise: Tell me measured He (%) SUVs for DWLKAFYDKVAEKLKEAF [peptide 244, reference compound] please.
Solution: 13

Exercise: Tell me measured He (%) SUVs for PVLDWFRELLNELLEALKQKLK [compound 35] please.
Solution: 61

###

Target: LCAT (purified from human plasma) (Homo sapiens, UniProt P04180)
Construct: from tissue; host or cells: human plasma
Sequence (P04180 25-440): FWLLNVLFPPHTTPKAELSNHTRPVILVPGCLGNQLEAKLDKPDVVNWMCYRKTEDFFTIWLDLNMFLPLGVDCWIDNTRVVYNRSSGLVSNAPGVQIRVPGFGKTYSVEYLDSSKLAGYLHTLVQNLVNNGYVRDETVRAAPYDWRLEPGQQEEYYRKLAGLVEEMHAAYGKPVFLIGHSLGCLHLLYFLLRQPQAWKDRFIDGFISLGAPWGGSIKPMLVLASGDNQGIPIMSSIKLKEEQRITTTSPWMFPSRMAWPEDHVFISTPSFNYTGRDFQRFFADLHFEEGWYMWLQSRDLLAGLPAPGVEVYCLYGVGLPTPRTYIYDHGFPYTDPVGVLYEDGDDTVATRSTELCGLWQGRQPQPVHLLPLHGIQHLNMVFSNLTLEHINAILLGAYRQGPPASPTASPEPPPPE
Test: LCAT activation assay
Format: biochemical
Conditions: LCAT activation as compared with native human ApoA-I (= 100%), equivalent masses
No end group written: not given here.
measuredAttribute: ACTIVITY (%) LCAT
Form entry: value (%) — number only.

The following substances have reported results that may help.
[
  {
    "substance": "PVLDLFRELLNEWLEALKQKLK [compound 54]",
    "measuredAttribute": "ACTIVITY (%) LCAT",
    "valueUnits": "%",
    "observedValue": 19
  },
  {
    "substance": "PVLDLFRELLNELLEALQKKLK [peptide 24]",
    "measuredAttribute": "ACTIVITY (%) LCAT",
    "valueUnits": "%",
    "observedValue": 53
  },
  {
    "substance": "Ac-PVLDLLRELLEELKQKLK-NH2 [compound 191]",
    "measuredAttribute": "ACTIVITY (%) LCAT",
    "valueUnits": "%",
    "observedValue": 100
  }
]

Exercise: Give ACTIVITY (%) LCAT for PVLDLFRELLNELLE [compound 97] tested on LCAT (purified from human plasma) (Homo sapiens, UniProt P04180).
Solution: 4

Exercise: Give ACTIVITY (%) LCAT for PVLELFENLLERLLELLNKKLK [compound 175] tested on LCAT (purified from human plasma) (Homo sapiens, UniProt P04180).
Solution: 13

Exercise: Give ACTIVITY (%) LCAT for PVLDAFRELAEALAQLKK [compound 225] tested on LCAT (purified from human plasma) (Homo sapiens, UniProt P04180).
Solution: 1

Exercise: Give ACTIVITY (%) LCAT for DWLKAFYDKVFEKFKEFF [peptide 245, reference compound] tested on LCAT (purified from human plasma) (Homo sapiens, UniProt P04180).
Solution: 4

Exercise: Give ACTIVITY (%) LCAT for Ac-PVLDLFREGLEELKQKLK-NH2 [compound 228] tested on LCAT (purified from human plasma) (Homo sapiens, UniProt P04180).
Solution: 0
